test system: Klebsiella pneumoniae; type: cell-based
Bridge positions count the residues as written; N and C are the ends. Square brackets hold non-standard residues; d marks the D form. Peptide text beside a SMILES is read from it. * marks the point of attachment. ξ: configuration not given here. dPhe(4-CN) = N#Cc1ccc(C[C@@H](N)C(=O)O)cc1; Octanoyl(6-Me) = CCC(C)CCCCC(=O)*; Thr(3ξ) = CC(O)[C@H](N)C(=O)O; Dab = NCC[C@H](N)C(=O)O
Measured endpoint: MIC K. pneumoniae ATCC 4352 (mg/L)
Dear colleague, please return just the value in mg/L, with no unit written.

| Compound | U | MIC K. pneumoniae ATCC 4352 |
| --- | --- | --- |
| CC(C)C[C@@H]1NC(=O)[C@@H](CC2CCCCC2)NC(=O)[C@H](CCN)NC(=O)[C@@H](NC(=O)[C@H](CN)NC(=O)[C@@H](NC(=O)CC(N)C2CCCCC2)C(C)O)CCNC(=O)[C@H]([C@@H](C)O)NC(=O)[C@H](CCN)NC(=O)[C@H](CCN)NC1=O (single isomer, unassigned; isomer 2) [Example 33] | mg/L | 0.03 |
| CCC(C)CCCCC(=O)N[C@@H](CCN)C(=O)N[C@H](C(=O)N[C@@H](CCN)C(=O)N[C@H]1CCNC(=O)[C@H]([C@@H](C)O)NC(=O)[C@H](CCN)NC(=O)[C@H](CCN)NC(=O)[C@H](CC(C)C)NC(=O)[C@@H](Cc2ccc(C#N)cc2)NC(=O)[C@H](CCN)NC1=O)C(C)O (stereo partly drawn) [Example 24, Polymyxin B[D-(4-cyano)Phe]-6] ({Octanoyl(6-Me)}-[Dab][Thr(3ξ)][Dab][Dab][Dab][dPhe(4-CN)]L[Dab][Dab]T; lactam 4-C) | mg/L | 0.125 |
| CC(C)Cc1ccc(C[C@H]2NC(=O)[C@H](CCN)NC(=O)[C@@H](NC(=O)[C@H](CN)NC(=O)[C@@H](NC(=O)C3CNCC(CC(C)C)C3)C(C)O)CCNC(=O)[C@H]([C@@H](C)O)NC(=O)[C@H](CCN)NC(=O)[C@H](CCN)NC(=O)[C@H](CC(C)C)NC2=O)cc1 (single isomer, unassigned; isomer 2) | mg/L | 0.25 |
| CC(C)CC1CNCC(C(=O)N[C@H](C(=O)N[C@@H](CN)C(=O)N[C@H]2CCNC(=O)[C@H]([C@@H](C)O)NC(=O)[C@H](CCN)NC(=O)[C@H](CCN)NC(=O)[C@H](CC(C)C)NC(=O)[C@@H](Cc3ccc(Br)cc3)NC(=O)[C@H](CCN)NC2=O)C(C)O)C1 (single isomer, unassigned; isomer 2) [Example 12] | mg/L | 0.125 |
| CCCCCCCCC1CNCC1C(=O)N[C@H](C(=O)N[C@@H](CCN)C(=O)N[C@H]1CCNC(=O)[C@H]([C@@H](C)O)NC(=O)[C@H](CCN)NC(=O)[C@H](CCN)NC(=O)[C@H](CC(C)C)NC(=O)[C@@H](Cc2ccccc2-c2ccccc2)NC(=O)[C@H](CCN)NC1=O)C(C)O (single isomer, unassigned; isomer 1) [Example 9] | mg/L | 0.5 |

Q: Consider the compound shown here: CC(C)CC(CN)C(=O)N[C@H](C(=O)N[C@@H](CN)C(=O)N[C@H]1CCNC(=O)[C@H]([C@@H](C)O)NC(=O)[C@H](CCN)NC(=O)[C@H](CCN)NC(=O)[C@H](CC(C)C)NC(=O)[C@@H](Cc2ccc(-c3ccc(C(F)(F)F)cc3)cc2)NC(=O)[C@H](CCN)NC1=O)C(C)O (single isomer, unassigned; isomer 1) What is its recorded MIC K. pneumoniae ATCC 4352?
Result: 0.5

Source: patent US12146004B2
